# System: NCI-H226 lung
# experiment_notes: NCI-60 one-dose screen, 48 h (100 = growth as untreated, 0 = no growth, -100 = all killed)
# condition_context: 10 µM unless noted
The panel holds about 83,000 compounds, 20% with a hit somewhere; the sample as a whole holds those more often.

molecule: COc1c(N2CC3CCCNC3C2)c(F)cc2c(=O)c(C(=O)N/N=C/c3ccc(N(C)C)cc3)cn(C3CC3)c12 (centres undefined)
assayed_target: NCI-H226 lung
display_unit: %
growth: 98.5

molecule: COc1ccccc1C(=O)Nc1cccc2c1C(=O)C(=O)C=C2
assayed_target: NCI-H226 lung
display_unit: %
growth: 99.9

molecule: c1ccc(C(c2nc3ncncc3[nH]2)N2CSc3nc4ccccc4n3C2)cc1 (centres undefined)
assayed_target: NCI-H226 lung
display_unit: %
growth: 98.7

molecule: CCCn1cnc2c(c1=N)C(c1ccc(Cl)cc1)c1sc3c(C)cccc3c1O2 (centres undefined)
assayed_target: NCI-H226 lung
display_unit: %
growth: 62

molecule: O=C(Cn1c(-c2ccccc2)nc2cc(Cl)c(Cl)cc21)N=Nc1c(O)[nH]c2ccc(Cl)cc12
assayed_target: NCI-H226 lung
display_unit: %
growth: 37.3

molecule: CNC(=O)c1cc(-c2ccc(NC(=S)Nc3cc(C(F)(F)F)cc(C(F)(F)F)c3)cc2)nc2cccnc12
assayed_target: NCI-H226 lung
display_unit: %
growth: 87.8

molecule: O=C(Nc1ccc2c(ccn2Cc2ccccn2)c1)c1cnccn1
assayed_target: NCI-H226 lung
display_unit: %
growth: 88.3

molecule: CCOC(=O)c1c(N)c(C#N)cn1-c1cc(OC)c(OC)c(OC)c1
assayed_target: NCI-H226 lung
display_unit: %
growth: 110

molecule: O=C(Nc1ccc(Br)cc1)Nc1nc2ccc([N+](=O)[O-])cc2s1
assayed_target: NCI-H226 lung
display_unit: %
growth: -3.17

molecule: Cc1ccc(NC(=O)CNc2cc(C(N)=O)cc(F)c2C)c(Cl)c1
assayed_target: NCI-H226 lung
display_unit: %
growth: 80.5

molecule: NC(N)=Nc1ccc(Oc2cccc(Nc3ccc(Cl)cc3)c2)cn1
assayed_target: NCI-H226 lung
display_unit: %
growth: 29.6

molecule: CCNC(=O)Oc1ccc(/C(=C(/C)c2ccccc2)c2ccc(OCCN3CCCCCC3)cc2)cc1
assayed_target: NCI-H226 lung
display_unit: %
growth: 55

molecule: O=C(O)c1ccc(-n2cc(CNc3cccc(Cl)c3)c(-c3ccc(F)cc3)n2)cc1
assayed_target: NCI-H226 lung
display_unit: %
growth: 112

molecule: O=C(NNc1nc2cc(F)ccc2n2c(CN3CCC(O)C3)ccc12)c1cnccn1 (centres undefined)
assayed_target: NCI-H226 lung
display_unit: %
growth: 18.8
